Cited source for all entries: ChEMBL document CHEMBL2218924

target: Serine/threonine-protein kinase PAK 5 (Homo sapiens) (UniProt Q9P286); details: at 1 µM
Sequence (Q9P286 whole entry, looked up): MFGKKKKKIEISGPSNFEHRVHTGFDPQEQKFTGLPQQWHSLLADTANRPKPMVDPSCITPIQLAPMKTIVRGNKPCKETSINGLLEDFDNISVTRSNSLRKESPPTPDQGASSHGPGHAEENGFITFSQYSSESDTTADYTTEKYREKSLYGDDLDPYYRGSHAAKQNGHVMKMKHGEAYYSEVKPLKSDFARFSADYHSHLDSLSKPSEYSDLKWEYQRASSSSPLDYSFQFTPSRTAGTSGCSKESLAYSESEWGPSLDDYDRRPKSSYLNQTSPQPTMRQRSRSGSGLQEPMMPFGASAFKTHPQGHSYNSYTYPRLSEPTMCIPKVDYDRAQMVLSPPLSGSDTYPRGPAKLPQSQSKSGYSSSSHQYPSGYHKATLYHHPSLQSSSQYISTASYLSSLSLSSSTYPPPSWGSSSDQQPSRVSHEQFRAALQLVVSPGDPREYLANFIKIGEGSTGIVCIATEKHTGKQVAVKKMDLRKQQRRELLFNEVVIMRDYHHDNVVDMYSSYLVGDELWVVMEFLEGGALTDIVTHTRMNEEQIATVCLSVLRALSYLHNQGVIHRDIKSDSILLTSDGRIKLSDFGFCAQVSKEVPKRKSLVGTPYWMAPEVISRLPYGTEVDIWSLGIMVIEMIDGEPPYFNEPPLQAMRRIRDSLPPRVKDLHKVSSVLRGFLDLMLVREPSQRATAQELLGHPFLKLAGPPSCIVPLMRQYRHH
test-readout: residual activity (%)
Express your answer in %, writing the number without its unit.

Before answering, review these 4 worked examples.
                                     smiles       test_readout  experimental_value
0          O=[N+]([O-])/C=C/c1ccc2c(c1)OCO2  residual activity                 103
1  COc1cc2ncnc(Nc3ccc(OCc4ccccc4)cc3)c2cc1OC  residual activity                  83
2  CC(C)[C@H](CO)Nc1nc(Nc2cccc(Cl)c2)c2ncn(C(C)C)c2n1  residual activity                  50
3  COc1cc(OC)c(/C=C2\C(=O)Nc3ccccc32)c(OC)c1  residual activity                  96

API: the following record is the query input.
Param item = c1cc(-c2cnn3cc(-c4ccc(OCCN5CCCCC5)cc4)cnc23)ccn1 ; retrieve measured residual activity. 87
